# Assay explanation: Rat pharmacokinetics, plasma levels by sandwich-based ELISA
# Assay type: in vivo
# Study conditions: rat, in vivo, sc; subcutaneous infusion 190 mcg/kg/hr for 2 hours
Metric: Cmax

Kindly note the recorded Cmax for Ac-EAVSLKPTGGYGRKKRRQRRR-NH2 [KAI-1678] , which is ~0.06 µg/mL

----------
# Assay explanation: Rat pharmacokinetics, plasma levels by sandwich-based ELISA
# Format: in vivo
# Study conditions: male, rat, plasma, sc; subcutaneous bolus; read-out: Time of maximum plasma concentration (converted)
Metric: Tmax

The recorded Tmax for Ac-EAVSLKPTGGYGRKKRRQRRR-NH2 [KAI-1678] is ~10 min

----------
# Assay explanation: Rat pharmacokinetics, plasma levels by sandwich-based ELISA
# Type: in vivo
# Study conditions: male, rat, plasma, sc, 19 ug/kg/hr; subcutaneous infusion 19 mcg/kg/hr, by 60 minutes; read-out: Steady state plasma concentration
Metric: level at 1 h

The recorded level at 1 h for entry Ac-EAVSLKPTGGYGRKKRRQRRR-NH2 [KAI-1678] equals ~3 ng/mL

----------
# Assay explanation: Plasma stability in human sera
# Type: in vitro ADME
# Study conditions: plasma; human sera, 30 minutes
Where no end group is shown, it is not given here.
Metric: remaining at 0.5 h (%)
# value in %; strip the unit string

For record EAVSLKPTGGYGRKKRRQRRR-NH2 [KP-1633, E-A-V-S-L-K-P-T-G-G-TaT-NH2] the listed remaining at 0.5 h is 83

----------
# Assay explanation: Rat pharmacokinetics, plasma levels by sandwich-based ELISA
# Assay type: in vivo
# Study conditions: rat, in vivo, sc; subcutaneous route vs intravenous bolus
Metric: bioavailability

Entry Ac-EAVSLKPTGGYGRKKRRQRRR-NH2 [KAI-1678] — recorded bioavailability = ~10%

----------
# Assay explanation: Rat pharmacokinetics, plasma levels by sandwich-based ELISA
# Assay type: in vivo
# Study conditions: rat, in vivo, sc, 800 ug/kg, subcutaneous bolus approximately 80 and 800 mcg/kg; read-out: Terminal half-life
Metric: half-life

Input Ac-EAVSLKPTGGYGRKKRRQRRR-NH2 [KAI-1678] . Output half-life: ~35 min

----------
# Assay explanation: Rat pharmacokinetics, plasma levels by sandwich-based ELISA
# Format: in vivo
# Study conditions: rat, in vivo, iv, 300 ug/kg, IV bolus ~300 mcg/kg, preliminary; read-out: Terminal half-life
Metric: half-life

Reported half-life for Ac-EAVSLKPTGGYGRKKRRQRRR-NH2 [KAI-1678] was ~38 min

----------
# Assay explanation: Rat pharmacokinetics, plasma levels by sandwich-based ELISA
# Assay type: in vivo
# Study conditions: rat, in vivo, iv, IV bolus ~300 mcg/kg, preliminary; read-out: Terminal half-life
Metric: half-life

Ac-EAVSLKPTGGYGRKKRRQRRR-NH2 [KAI-1678] has a reported half-life of ~38 min

----------
# Assay explanation: Chemical stability of cargo/carrier peptide constructs
# Assay type: physicochemical
# Study conditions: 9 days of treatment
Where no end group is shown, it is not given here.
Metric: remaining at 216 h (%)
// return numeric value only (unit: %, not printed)

Lab book: remaining at 216 h of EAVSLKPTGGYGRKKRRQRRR-NH2 [KP-1633, E-A-V-S-L-K-P-T-G-G-TaT-NH2] noted as 99
